Values compiled from ChEMBL document CHEMBL3808394.

The entries below come with measured inhibition values attached.
System tested: Amyloid-beta precursor protein (Homo sapiens) (UniProt P05067)
Sequence (P05067 whole entry): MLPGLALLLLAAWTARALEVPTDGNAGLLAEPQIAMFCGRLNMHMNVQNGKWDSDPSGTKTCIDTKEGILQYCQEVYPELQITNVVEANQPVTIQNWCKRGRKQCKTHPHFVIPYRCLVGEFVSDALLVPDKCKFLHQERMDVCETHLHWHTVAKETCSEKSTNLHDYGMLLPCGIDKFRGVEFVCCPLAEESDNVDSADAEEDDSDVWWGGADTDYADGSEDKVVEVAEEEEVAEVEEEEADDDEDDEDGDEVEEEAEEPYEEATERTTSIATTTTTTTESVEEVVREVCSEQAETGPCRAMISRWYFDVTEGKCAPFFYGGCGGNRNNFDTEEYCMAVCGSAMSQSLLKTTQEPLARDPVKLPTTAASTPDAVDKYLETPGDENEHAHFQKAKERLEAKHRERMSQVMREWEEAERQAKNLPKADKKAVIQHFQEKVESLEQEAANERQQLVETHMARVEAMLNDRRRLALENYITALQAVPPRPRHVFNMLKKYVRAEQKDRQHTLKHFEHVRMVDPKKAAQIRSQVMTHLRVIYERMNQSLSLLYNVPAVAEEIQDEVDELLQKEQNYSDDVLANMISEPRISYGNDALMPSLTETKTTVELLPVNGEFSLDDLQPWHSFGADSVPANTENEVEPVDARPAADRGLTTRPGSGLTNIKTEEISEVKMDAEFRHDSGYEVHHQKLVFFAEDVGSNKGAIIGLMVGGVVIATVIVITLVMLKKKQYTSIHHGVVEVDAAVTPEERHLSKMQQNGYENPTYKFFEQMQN
Method summary: Reduction in amyloid beta 40 content (unknown origin) expressed in HEK293 cells expressing APP K595N/M596L Swedish mutant at 20 uM after 24 hrs by ELISA
Format: cell-based
Quantity name: inhibition

                                      smiles  result
 0  COc1ccc(C[C@H]2COC(=O)[C@@H]2Cc2ccc(OC(=O)N[C@H](C)c3ccccc3)c(OC)c2)cc1OC     45%
 1  COc1ccc(C[C@H]2COC(=O)[C@@H]2Cc2ccc(OC(=O)Nc3ccccc3Cl)c(OC)c2)cc1OC   58.3%
 2  COc1ccc(C[C@H]2COC(=O)[C@@H]2Cc2ccc(N3CCCCC3)c(OC)c2)cc1OC   26.2%
 3  COc1ccc(C[C@H]2COC(=O)[C@@H]2Cc2ccc(OC(=O)Nc3cccc(F)c3)c(OC)c2)cc1OC     61%
 4  COc1ccc(C[C@H]2COC(=O)[C@@H]2Cc2ccc(OC(=O)Nc3cc(Cl)cc(Cl)c3)c(OC)c2)cc1OC     56%
 5  COc1ccc(C[C@H]2COC(=O)[C@@H]2Cc2ccc(OC(=O)Nc3cccc(Cl)c3)c(OC)c2)cc1OC   78.7%
 6  COc1ccc(C[C@H]2COC(=O)[C@@H]2Cc2ccc(OC(=O)Nc3ccc(F)c(Cl)c3)c(OC)c2)cc1OC   60.5%
 7  COc1ccc(C[C@H]2COC(=O)[C@@H]2Cc2ccc(OC(=O)Nc3ccccc3)c(OC)c2)cc1OC   43.5%
 8  COc1ccc(C[C@H]2COC(=O)[C@@H]2Cc2ccc(OC(=O)Nc3cccc([N+](=O)[O-])c3)c(OC)c2)cc1OC     63%
 9  COc1ccc(C[C@H]2COC(=O)[C@@H]2Cc2ccc(OC(=O)Nc3cccc(C)c3)c(OC)c2)cc1OC     55%
10  COc1ccc(C[C@H]2COC(=O)[C@@H]2Cc2ccc(OC(=O)N(C)c3cccc(Cl)c3)c(OC)c2)cc1OC     41%
11  COc1ccc(C[C@H]2COC(=O)[C@@H]2Cc2ccc(OC(=O)Nc3ccc(C)c(Cl)c3)c(OC)c2)cc1OC   53.7%
12  COc1ccc(C[C@H]2COC(=O)[C@@H]2Cc2ccc(OC(=O)Nc3cccc(C#N)c3)c(OC)c2)cc1OC     56%
13  COc1ccccc1NC(=O)Oc1ccc(C[C@H]2C(=O)OC[C@@H]2Cc2ccc(OC)c(OC)c2)cc1OC   61.7%
